Biological target: T1, human PAR-2 (human, UniProt P55085 26-397)
T1 sequence: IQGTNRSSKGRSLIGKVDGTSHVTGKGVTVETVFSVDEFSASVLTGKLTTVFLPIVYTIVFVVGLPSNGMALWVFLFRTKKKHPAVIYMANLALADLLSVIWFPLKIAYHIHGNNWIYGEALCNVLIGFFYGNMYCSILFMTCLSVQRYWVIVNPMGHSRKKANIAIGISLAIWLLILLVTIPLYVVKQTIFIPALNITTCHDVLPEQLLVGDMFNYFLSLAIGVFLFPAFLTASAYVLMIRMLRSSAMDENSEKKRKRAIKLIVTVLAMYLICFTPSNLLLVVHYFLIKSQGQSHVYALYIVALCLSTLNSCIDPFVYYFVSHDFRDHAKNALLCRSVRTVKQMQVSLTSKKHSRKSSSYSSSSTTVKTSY
Experiment: cell-based or functional assay
Measured PAR-2 β-arrestin cell based assay IC50, 2 µM SLIGKV, listed per entry.
Entry rule: numbers only, all in nM.

Prompt: Would you mind telling me what PAR-2 β-arrestin cell based assay IC50, 2 µM SLIGKV value was observed for P24E295 (antibody, human IgG4 S228P, kappa, V domains shown) VH: QVQLVQSGAEVKKPGSSVKVSCKASGFSLNSYAISWVRQAPGQGLEWMGVIWGNGNTYYAQKFQGRVTITADESTSTAYMELSSLRSEDTAVYYCARWRGYKDYPFDYWGQGTLVTVSS VL: EIVLTQSPATLSLSPGERATLSCKASQNVYKYLDWYQQKPGQAPRLLIYNTNSLATGIPARFSGSGSGRDFTLTISSLEPEDFAVYYCLQHNSGWTFGGGTKVEIKR ?
Response: 1.6

Prompt: Would you mind telling me what PAR-2 β-arrestin cell based assay IC50, 2 µM SLIGKV value was observed for P24E914 (antibody, human IgG4 S228P, kappa, V domains shown) VH: QVQLVQSGAEVKKPGSSVKVSCKASGFSLSSYAISWVRQAPGQGLEWMGVIWGNGNTYYAQKFQGRVTITADESTSTAYMELSSLRSEDTAVYYCARWKGYKDYPFDYWGQGTLVTVSS VL: EIVLTQSPATLSLSPGERATLSCRASQNIYKWLDWYQQKPGQAPRLLIYNAYSLATGIPARFSGSGSGRDFTLTISSLEPEDFAVYYCQQHNSGWTFGGGTKVEIKR ?
Response: 0.94

Prompt: Would you mind telling me what PAR-2 β-arrestin cell based assay IC50, 2 µM SLIGKV value was observed for P24E919 (antibody, human IgG4 S228P, kappa, V domains shown) VH: QVQLVQSGAEVKKPGSSVKVSCKASGFSLSSYAISWVRQAPGQGLEWMGVIWGNGNTYYAQKFQGRVTITADESTSTAYMELSSLRSEDTAVYYCARWRGFKDYPFDYWGQGTLVTVSS VL: EIVLTQSPATLSLSPGERATLSCKASQNVYKWLDWYQQKPGQAPRLLIYNAYSLATGIPARFSGSGSGRDFTLTISSLEPEDFAVYYCQQHNSGWTFGGGTKVEIKR ?
Response: 1.44
